assay-remarks: Cmax in rat at 3 mg/kg, po by LC-MS/MS analysis
Assay type: ADME, organism-based
Set-up: dose 3 mg/kg, route oral
condition-set: in vivo
assay-metric: Cmax (ng/mL)
Give a bare numeral; the unit ng/mL is implied.

Which measured Cmax value corresponds to O=C(Cc1ccc(F)cc1B(O)O)N1CCC(Oc2ccc(C(F)(F)F)cn2)CC1 ?
650

// data source = ChEMBL document CHEMBL4043125
